Overview of reported pIC50 across a group of compounds:
ASSAYED TARGET: hROMK1 (Kir1.1) (Homo sapiens (Human), UniProt P48048)
Sequence (P48048 whole entry): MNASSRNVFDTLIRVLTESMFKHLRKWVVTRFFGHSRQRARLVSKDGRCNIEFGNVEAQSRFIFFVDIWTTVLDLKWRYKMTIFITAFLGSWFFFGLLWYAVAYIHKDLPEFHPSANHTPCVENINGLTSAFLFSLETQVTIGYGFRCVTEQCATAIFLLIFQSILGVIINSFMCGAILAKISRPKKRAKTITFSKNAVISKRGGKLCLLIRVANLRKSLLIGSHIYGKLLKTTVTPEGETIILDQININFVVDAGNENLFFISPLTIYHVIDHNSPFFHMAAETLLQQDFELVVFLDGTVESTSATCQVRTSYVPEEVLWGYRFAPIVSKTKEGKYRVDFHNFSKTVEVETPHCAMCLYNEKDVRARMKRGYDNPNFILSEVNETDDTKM
TEST NAME: ^86Rb^+ Efflux Assay
Type: cell-based
MEASUREMENT SETUP: Table 1; CHO-DHFR- cells stably expressing hROMK1 (Kir1.1); read-out: ^86Rb^+ Efflux Assay IC50
pIC50: −log10 of the molar value.

[
  {
    "COMPOUND": "Cc1c(CCN2CCN(CCc3ccc(-n4cnnn4)nc3)CC2)ccc2c1COC2=O",
    "ASSAYED TARGET": "hROMK1 (Kir1.1) (Homo sapiens (Human), UniProt P48048)",
    "pIC50": 6.21
  },
  {
    "COMPOUND": "N#Cc1ccc2c(c1)CC[C@@H](N1CCN(CCc3ccc([N+](=O)[O-])cc3)CC1)C2",
    "ASSAYED TARGET": "hROMK1 (Kir1.1) (Homo sapiens (Human), UniProt P48048)",
    "pIC50": 7.18
  },
  {
    "COMPOUND": "COc1cc(CCN2CCN(CCc3ccc4c(c3)CC(C)OC4=O)CC2)ccc1C#N (stereo not drawn)",
    "ASSAYED TARGET": "hROMK1 (Kir1.1) (Homo sapiens (Human), UniProt P48048)",
    "pIC50": 7.01
  },
  {
    "COMPOUND": "CC1(C)CN(CCc2ccc([N+](=O)[O-])cc2)CCN1CCc1ccc([N+](=O)[O-])cc1",
    "ASSAYED TARGET": "hROMK1 (Kir1.1) (Homo sapiens (Human), UniProt P48048)",
    "pIC50": 6.68
  },
  {
    "COMPOUND": "Cc1c(CCN2CCN(CCc3ccc(C#N)c4ccccc34)CC2)ccc2c1COC2=O",
    "ASSAYED TARGET": "hROMK1 (Kir1.1) (Homo sapiens (Human), UniProt P48048)",
    "pIC50": 6.80
  },
  {
    "COMPOUND": "COc1cc(CCN2CCN(CCc3ccc4c(c3)COC4=O)CC2C(F)(F)F)ccc1C#N (stereo not drawn)",
    "ASSAYED TARGET": "hROMK1 (Kir1.1) (Homo sapiens (Human), UniProt P48048)",
    "pIC50": 6.57
  },
  {
    "COMPOUND": "Cc1c(CCN2CCN(CC(C)c3ccc4c(c3C)COC4=O)CC2)ccc2c1COC2=O (stereo not drawn)",
    "ASSAYED TARGET": "hROMK1 (Kir1.1) (Homo sapiens (Human), UniProt P48048)",
    "pIC50": 7.47
  },
  {
    "COMPOUND": "O=[N+]([O-])c1ccc(CCN2C[C@@H]3C[C@H]2CN3CCc2ccc([N+](=O)[O-])cc2)cc1",
    "ASSAYED TARGET": "hROMK1 (Kir1.1) (Homo sapiens (Human), UniProt P48048)",
    "pIC50": 6.96
  },
  {
    "COMPOUND": "Cc1c(CCN2CCN(CCc3ccc4c(c3C)COC4=O)CC2)ccc2c1COC2=O",
    "ASSAYED TARGET": "hROMK1 (Kir1.1) (Homo sapiens (Human), UniProt P48048)",
    "pIC50": 7.12
  }
]

---

ASSAYED TARGET: hROMK1 (Kir1.1) (Homo sapiens (Human))
TEST NAME: ^86Rb^+ Efflux Assay
Type: cell-based
MEASUREMENT SETUP: CHO-DHFR- cells stably expressing hROMK1 (Kir1.1); value in parentheses at the end of each Example; read-out: IC50 in the ^86Rb^+ Efflux Assay
Overview of reported IC50 across a group of compounds:
PARAMETER MEASURED: IC50 (nM)

[
  {
    "COMPOUND": "O=[N+]([O-])c1ccc(CCN2CCN(C3Cc4ccc([N+](=O)[O-])cc4C3)CC2)cc1 (stereo not drawn)",
    "ASSAY VALUE": 310
  },
  {
    "COMPOUND": "N#Cc1ccc2c(c1)CCC(N1CCN(CCc3ccc4c(c3)COC4=O)CC1)C2 (stereo not drawn)",
    "ASSAY VALUE": 50
  },
  {
    "COMPOUND": "N#Cc1ccc(CCN2CCN(CCc3ccc4c(c3)COC4=O)CC2)c(Cl)c1F",
    "ASSAY VALUE": 130
  },
  {
    "COMPOUND": "COc1cc(CCN2CCN(CCc3ccc([N+](=O)[O-])cc3)CC2)ccc1C#N",
    "ASSAY VALUE": 52
  },
  {
    "COMPOUND": "COC(=O)[C@H](Cc1ccc([N+](=O)[O-])cc1)N1CCN(CCc2ccc([N+](=O)[O-])cc2)CC1",
    "ASSAY VALUE": 510
  },
  {
    "COMPOUND": "Cc1c(C(C)CN2CCN(CC(C)c3ccc4c(c3C)COC4=O)CC2)ccc2c1COC2=O (stereo not drawn)",
    "ASSAY VALUE": 220
  },
  {
    "COMPOUND": "COc1cc(CC(C)N2CCN(CCc3ccc4c(c3)COC4=O)CC2)ccc1C#N (stereo not drawn)",
    "ASSAY VALUE": 210
  },
  {
    "COMPOUND": "Cc1c(CCN2CCN(CCc3ccc(C#N)c(Cl)c3)CC2)ccc2c1COC2=O",
    "ASSAY VALUE": 35
  },
  {
    "COMPOUND": "O=[N+]([O-])c1ccc(CCN2CCN(CCc3ccc([N+](=O)[O-])cc3C(F)(F)F)CC2)cc1",
    "ASSAY VALUE": 440
  },
  {
    "COMPOUND": "O=[N+]([O-])c1ccc(CCN2C[C@@H]3C[C@H]2CN3CCc2ccc([N+](=O)[O-])cc2)cc1",
    "ASSAY VALUE": 110
  },
  {
    "COMPOUND": "N#Cc1ccc2c(c1)CC(N1CCN(CCc3ccc([N+](=O)[O-])cc3)CC1)C2 (stereo not drawn)",
    "ASSAY VALUE": 730
  },
  {
    "COMPOUND": "N#Cc1cccc2c1CCC2CN1CCN(CCc2ccc3c(c2)COC3=O)CC1 (stereo not drawn)",
    "ASSAY VALUE": 270
  },
  {
    "COMPOUND": "COC(=O)CC1CN(CCc2ccc([N+](=O)[O-])cc2)CCN1CCc1ccc([N+](=O)[O-])cc1 (stereo not drawn)",
    "ASSAY VALUE": 390
  },
  {
    "COMPOUND": "Cc1c(CCN2CCN(CCc3ccc(C#N)c4ccccc34)CC2)ccc2c1COC2=O",
    "ASSAY VALUE": 160
  },
  {
    "COMPOUND": "O=[N+]([O-])c1ccc(CCN2CCN(CCc3ccc([N+](=O)[O-])cc3)C(CF)C2)cc1 (stereo not drawn)",
    "ASSAY VALUE": 180
  },
  {
    "COMPOUND": "c1cc2nonc2cc1CCN1CCN(C2CCc3cc(-n4cnnn4)ccc3C2)CC1 (stereo not drawn)",
    "ASSAY VALUE": 980
  },
  {
    "COMPOUND": "O=[N+]([O-])c1ccc(CCN2CCN(CCc3ccc([N+](=O)[O-])cn3)CC2)cc1",
    "ASSAY VALUE": 280
  },
  {
    "COMPOUND": "COc1cc(CCN2CCN(CCc3ccc4c(c3C)COC4=O)CC2)c(Cl)cc1C#N",
    "ASSAY VALUE": 71
  },
  {
    "COMPOUND": "N#Cc1ccc(CCN2CCN(CCc3ccc4c(c3)COC4=O)CC2)cc1OC(F)F",
    "ASSAY VALUE": 150
  },
  {
    "COMPOUND": "Cc1c(CCN2CCN(CCc3ccc4c(c3)COC4=O)CC2)ccc(C#N)c1F",
    "ASSAY VALUE": 80
  },
  {
    "COMPOUND": "COc1c(C#N)ccc(CCN2CCN(CCc3ccc4c(c3)COC4=O)CC2)c1C",
    "ASSAY VALUE": 180
  },
  {
    "COMPOUND": "N#Cc1ccc2c(c1)OCCC2CN1CCN(CCc2ccc3c(c2)COC3=O)CC1 (stereo not drawn)",
    "ASSAY VALUE": 92
  },
  {
    "COMPOUND": "COc1cc(CCN2CCN(CCc3ccc4c(c3)CC(C)OC4=O)CC2)ccc1C#N (stereo not drawn)",
    "ASSAY VALUE": 98
  },
  {
    "COMPOUND": "COc1c(C#N)ccc(CCN2CCN(CCc3ccc4c(c3)COC4=O)CC2)c1F",
    "ASSAY VALUE": 92
  },
  {
    "COMPOUND": "N#Cc1ccc2c(c1)CC[C@@H](N1CCN(CCc3ccc([N+](=O)[O-])cc3)CC1)C2",
    "ASSAY VALUE": 66
  },
  {
    "COMPOUND": "N#Cc1ccc2c(c1)CC[C@H](N1CCN(CCc3ccc([N+](=O)[O-])cc3)CC1)C2",
    "ASSAY VALUE": 83
  },
  {
    "COMPOUND": "O=[N+]([O-])c1ccc(CCN2CCN(CCc3ccc([N+](=O)[O-])cc3)C(C(F)F)C2)cc1 (stereo not drawn)",
    "ASSAY VALUE": 440
  },
  {
    "COMPOUND": "Cc1c(CCN2CCN(CCc3ccc(C#N)c(OC(F)F)c3)CC2)ccc2c1COC2=O",
    "ASSAY VALUE": 160
  },
  {
    "COMPOUND": "Cc1c(CCN2CCN(CCc3c(F)cc(C#N)c(F)c3F)CC2)ccc2c1COC2=O",
    "ASSAY VALUE": 230
  },
  {
    "COMPOUND": "CC1(C)CN(CCc2ccc([N+](=O)[O-])cc2)CCN1CCc1ccc([N+](=O)[O-])cc1",
    "ASSAY VALUE": 210
  },
  {
    "COMPOUND": "COc1cc(CCN2CCN(CCc3ccc4c(c3)COC4=O)C(C(F)(F)F)C2)ccc1C#N (stereo not drawn)",
    "ASSAY VALUE": 650
  },
  {
    "COMPOUND": "CC(Cc1ccc([N+](=O)[O-])cc1)N1CCN(C(C)Cc2ccc([N+](=O)[O-])cc2)CC1 (stereo not drawn)",
    "ASSAY VALUE": 330
  },
  {
    "COMPOUND": "COc1cc(C#N)ccc1CCN1CCN(CCc2ccc([N+](=O)[O-])cc2)CC1",
    "ASSAY VALUE": 300
  }
]
